Listed binders paired with reported binding affinity ratio (relative to standard peptide)
# ASSAY_TARGET: HLA-B*0702 (human)
# PROTOCOL_TEXT: competition with 125I-labelled standard peptide for purified HLA, gel filtration
REPORTED_PROPERTY: binding affinity ratio (relative to standard peptide)

• VPESDAAARV (modifications not checked) [HCV peptide … (polyprotein position 1940)] = 0.0001
• YPYRLWHY (modifications not checked) [HCV peptide YPYRLWHY (polyprotein position 616)] = 0.0001
• TPCSGSWL (modifications not checked) [HCV peptide TPCSGSWL (polyprotein position 1975)] = 0.0028
• VPESDAAA (modifications not checked) [HCV peptide VPESDAAA (polyprotein position 1940)] = 0.0022
• WPLLLLLL (modifications not checked) [HCV peptide WPLLLLLL (polyprotein position 799)] = 0.0021
• TPGLPVCQDHL (modifications not checked) [HCV peptide … (polyprotein position 1550)] = 0.0001
• TPVNSWLGNII (modifications not checked) = 0.0001
• SPTHYVPESDA (modifications not checked) [HCV peptide … (polyprotein position 1935)] = 0.0001
• TPVNSWLGNI (modifications not checked) = 0.0001
